Target: D3R (Homo sapiens (Human), UniProt P35462)
Sequence (P35462 whole entry): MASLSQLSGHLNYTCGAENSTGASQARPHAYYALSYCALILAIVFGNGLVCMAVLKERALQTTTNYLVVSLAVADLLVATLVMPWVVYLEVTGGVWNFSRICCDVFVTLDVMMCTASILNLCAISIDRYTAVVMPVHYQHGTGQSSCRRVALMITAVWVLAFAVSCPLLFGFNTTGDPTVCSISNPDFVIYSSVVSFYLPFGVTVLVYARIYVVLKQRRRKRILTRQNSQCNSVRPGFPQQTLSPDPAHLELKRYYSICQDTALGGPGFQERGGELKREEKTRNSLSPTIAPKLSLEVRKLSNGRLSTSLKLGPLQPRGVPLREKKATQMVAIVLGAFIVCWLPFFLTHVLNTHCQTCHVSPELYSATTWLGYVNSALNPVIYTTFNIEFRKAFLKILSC
Assay: D3 Mitogenesis Functional Assay (3H-thymidine uptake, CHOp-D3 cells)
Assay type: cell-based
Conditions: at 10 μM; % maximum stimulation vs quinpirole (100%); read-out: D3 Agonist Emax
Below: a set of entries, each annotated with reported Emax at 10 µM.
# unit: % | format: bare number

{"columns": ["SMILES_ENTRY", "SYSTEM_UNDER_TEST", "Emax at 10 µM (%)"],
 "data": [
  ["CC(C)(C)c1nc(N2CCN(CCCCNC(=O)c3cn4ccccc4n3)CC2)cc(C(F)(F)F)n1", "D3R (Homo sapiens (Human), UniProt P35462)", 0]
]}

Entry under review: CC(C)(C)c1nc(N2CCN(CCCCNC(=O)N3CCN(c4ccccc4)CC3)CC2)cc(C(F)(F)F)n1 . Reported Emax at 10 µM?
3

====

Attribute: Ki
Target: human D2-long dopamine receptor (Homo sapiens (Human))
Sequence (P14416 whole entry): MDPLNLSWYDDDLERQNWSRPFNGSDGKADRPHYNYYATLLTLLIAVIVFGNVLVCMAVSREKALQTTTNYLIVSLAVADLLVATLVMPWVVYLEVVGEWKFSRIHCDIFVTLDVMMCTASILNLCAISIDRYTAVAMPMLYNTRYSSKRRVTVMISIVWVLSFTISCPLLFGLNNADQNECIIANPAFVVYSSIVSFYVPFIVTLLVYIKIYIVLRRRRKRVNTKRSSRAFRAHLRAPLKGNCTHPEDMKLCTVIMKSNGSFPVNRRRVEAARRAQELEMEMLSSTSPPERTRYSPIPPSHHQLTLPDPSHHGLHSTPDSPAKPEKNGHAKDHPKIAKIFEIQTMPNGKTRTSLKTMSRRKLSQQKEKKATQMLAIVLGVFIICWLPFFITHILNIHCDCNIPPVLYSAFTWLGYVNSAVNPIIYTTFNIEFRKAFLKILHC
Assay: Radioligand binding (125I-IABN competition), D2
Conditions: HEK cell membranes expressing human D2-long
Protocol: The affinities of the target compounds were determined using radioligand binding experiments. […] Competition curves were modeled for a single site. Data from competition dose-response curves were analyzed using Tablecurve program (Jandel). IC50 values were converted to equilibrium dissociation constants (Ki values) using the Cheng and Prusoff correction.
Lab book: enter the figure in nM, no units written.

Before answering, review these 6 worked examples.
{"columns": ["MOLECULE", "SYSTEM_UNDER_TEST", "Ki (nM)"],
 "data": [
  ["Cc1cc(N2CCN(CCCCNC(=O)C3CCN(c4ccc(C(F)(F)F)cn4)CC3)CC2)nc(C(C)(C)C)n1 [Compound 107]", "human D2-long dopamine receptor (Homo sapiens (Human))", 970],
  ["CC(C)(C)c1cc(N2CCN(CCCCNC(=O)N3CCN(c4ccccc4)CC3)CC2)nc(C(C)(C)C)n1 [Compound 10]", "human D2-long dopamine receptor (Homo sapiens (Human))", 337],
  ["CC(C)(C)c1nc(N2CCN(CCCCNC(=O)N3CCN(c4ccnc5ccccc45)CC3)CC2)cc(C(F)(F)F)n1 [Compound 34]", "human D2-long dopamine receptor (Homo sapiens (Human))", 524],
  ["COc1ccc(N2CCN(C(=O)NCCCCN3CCN(c4cc(C(F)(F)F)nc(C(C)(C)C)n4)CC3)CC2)cc1 [Compound 21]", "human D2-long dopamine receptor (Homo sapiens (Human))", 557],
  ["CC(C)(C)c1cc(N2CCN(CCCCNC(=O)c3cn4ccccc4n3)CC2)nc(C(C)(C)C)n1 [Compound 122]", "human D2-long dopamine receptor (Homo sapiens (Human))", 361],
  ["CC(C)(C)c1nc(C2CC2)cc(N2CCN(CCCCNC(=O)N3CCN(c4ccccc4)CC3)CC2)n1 [Compound 9]", "human D2-long dopamine receptor (Homo sapiens (Human))", 515]
]}

I'm curious: which Ki was measured for CC(C)(C)c1cc(N2CCN(CCCCNC(=O)N3CCN(c4ccccc4)CC3)CC2)cc(C(C)(C)C)c1 [Compound 86] tested on human D2-long dopamine receptor (Homo sapiens (Human))?
1850

What value of Ki on human D2-long dopamine receptor (Homo sapiens (Human)) does CC(C)(C)c1nc(N2CCN(CCCCNC(=O)N3CCCc4ccccc43)CC2)cc(C(F)(F)F)n1 [Compound 70] have?
215

Query Ki on human D2-long dopamine receptor (Homo sapiens (Human)) for O=C(NCCCCN1CCN(c2ccc3ccccc3n2)CC1)C1CCC(c2ccccc2)CC1 (stereo not drawn) [Compound 106]
3090

Ki of CC(C)(C)c1nc(N2CCN(CCCCNC(=O)N3CCN(C(=O)c4ccccc4)CC3)CC2)cc(C(F)(F)F)n1 [Compound 37] on human D2-long dopamine receptor (Homo sapiens (Human))?
998

What measured Ki is associated with Cc1cc(N2CCN(CCCCNC(=O)N3CCN(S(=O)(=O)c4ccccc4)CC3)CC2)nc(C(C)(C)C)n1 [Compound 46] on human D2-long dopamine receptor (Homo sapiens (Human))?
906

// fetch human D2-long dopamine receptor (Homo sapiens (Human)) Ki for CC(C)(C)c1nc(N2CCN(CCCCNC(=O)N3CCCC(c4ccccc4)CC3)CC2)cc(C(F)(F)F)n1 (stereo not drawn) [Compound 82]
668

Quick check: Ki on human D2-long dopamine receptor (Homo sapiens (Human)), item O=C(NCCCCN1CCN(c2ccnc3ccccc23)CC1)c1nc2ccccn2c1Br [Compound 128] ?
2330

Give human D2-long dopamine receptor (Homo sapiens (Human)) Ki for O=C(NCCCCN1CCN(c2cccc(Cl)c2Cl)CC1)N1CCC(c2ccccc2)CC1 [Compound 47]
102

Hi! What's the reported Ki for CC(C)(C)c1nc(N2CCN(CCCCNC(=O)N3CCN(c4cccnc4)CC3)CC2)cc(C(F)(F)F)n1 [Compound 30] on human D2-long dopamine receptor (Homo sapiens (Human))?
455
